// data source = patent US7998987B2

target: c-Met (Homo sapiens, UniProt P08581); experiment: Ki determination for the inhibition of c-Met kinase activity (standard coupled enzyme system); format: biochemical; details: coupled enzyme system, 200 μM ATP, 80 nM c-Met, 30° C.; read-out: c-Met Ki
Sequence (P08581 25-1390): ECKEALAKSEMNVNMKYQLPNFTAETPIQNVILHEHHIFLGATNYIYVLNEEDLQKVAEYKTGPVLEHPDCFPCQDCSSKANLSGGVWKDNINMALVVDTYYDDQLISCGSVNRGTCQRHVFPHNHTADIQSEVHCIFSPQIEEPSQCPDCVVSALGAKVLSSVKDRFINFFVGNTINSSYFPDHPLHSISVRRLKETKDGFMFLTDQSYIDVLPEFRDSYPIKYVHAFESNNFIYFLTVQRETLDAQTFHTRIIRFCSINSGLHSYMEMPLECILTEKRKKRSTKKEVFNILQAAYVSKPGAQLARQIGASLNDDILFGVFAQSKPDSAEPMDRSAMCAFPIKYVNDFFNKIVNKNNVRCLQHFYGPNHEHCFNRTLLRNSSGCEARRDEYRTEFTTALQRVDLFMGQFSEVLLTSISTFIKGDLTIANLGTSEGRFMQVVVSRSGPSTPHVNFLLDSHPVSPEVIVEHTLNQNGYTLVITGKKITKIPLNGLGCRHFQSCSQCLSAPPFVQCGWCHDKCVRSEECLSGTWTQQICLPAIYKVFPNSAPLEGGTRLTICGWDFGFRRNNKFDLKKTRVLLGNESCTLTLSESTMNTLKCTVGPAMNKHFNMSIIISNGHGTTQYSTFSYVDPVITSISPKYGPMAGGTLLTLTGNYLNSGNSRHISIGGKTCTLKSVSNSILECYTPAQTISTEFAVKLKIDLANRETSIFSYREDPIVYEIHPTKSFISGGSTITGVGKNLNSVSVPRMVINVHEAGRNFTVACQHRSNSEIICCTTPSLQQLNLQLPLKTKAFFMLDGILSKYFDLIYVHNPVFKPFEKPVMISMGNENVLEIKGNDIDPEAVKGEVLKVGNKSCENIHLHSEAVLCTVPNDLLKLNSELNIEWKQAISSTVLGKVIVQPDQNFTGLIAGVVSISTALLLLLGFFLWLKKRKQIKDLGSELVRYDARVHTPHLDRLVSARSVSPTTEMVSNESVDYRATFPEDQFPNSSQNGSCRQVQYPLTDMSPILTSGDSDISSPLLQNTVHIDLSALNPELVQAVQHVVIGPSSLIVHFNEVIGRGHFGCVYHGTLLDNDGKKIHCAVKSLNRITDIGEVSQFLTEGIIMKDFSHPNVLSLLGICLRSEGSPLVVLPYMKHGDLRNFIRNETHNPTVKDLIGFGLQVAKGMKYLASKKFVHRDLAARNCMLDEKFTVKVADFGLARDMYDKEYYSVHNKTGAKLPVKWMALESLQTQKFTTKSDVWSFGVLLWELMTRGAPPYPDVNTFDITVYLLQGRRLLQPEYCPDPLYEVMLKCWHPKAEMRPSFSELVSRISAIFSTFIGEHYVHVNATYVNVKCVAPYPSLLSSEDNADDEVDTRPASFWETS
pKi: −log10 of the molar value.
# pKi per entry

{"TEST_SMILES": "C[C@@H](c1ccc(O)cc1)c1nnc2ccc(Nc3nncs3)nn12", "pKi": "5.70 to 7.00"}
{"TEST_SMILES": "Nc1ncnc2c1ccn2Cc1nnc2ccc(Nc3cccc(Cl)c3)nn12", "pKi": "5.70 to 7.00"}
{"TEST_SMILES": "O=C(Nc1ccc2nnc(Cc3ccc(O)cc3)n2n1)C1CCCCC1", "pKi": "< 5.70"}
{"TEST_SMILES": "Oc1ccc(Cc2nnc3ccc(Nc4cccc(C(F)(F)F)c4)nn23)cc1F", "pKi": "> 7.00"}
{"TEST_SMILES": "Clc1cccc(Nc2ccc3nnc(CNc4cccc5ncccc45)n3n2)c1", "pKi": "> 7.00"}
{"TEST_SMILES": "COC(=O)c1ccc(OCc2nnc3ccc(Nc4cccc(Cl)c4)nn23)c(N)c1", "pKi": "> 7.00"}
{"TEST_SMILES": "Fc1ccc(NCc2nnc3ccc(Nc4cccc(Cl)c4)nn23)c(Cl)c1", "pKi": "< 5.70"}
{"TEST_SMILES": "Oc1ccc(NCc2nnc3ccc(Nc4cccc(Cl)c4)nn23)cc1", "pKi": "5.70 to 7.00"}

* * *

biological target: c-Met (Homo sapiens, UniProt P08581); experiment: Ki determination for the inhibition of c-Met kinase activity (standard coupled enzyme system); assay type: biochemical; details: coupled enzyme system, 200 μM ATP, 80 nM c-Met, 30° C.; read-out: c-Met Ki
pKi: −log10 of the molar value.

{"TEST_SMILES": "Clc1cccc(Nc2ccc3nnc(COc4ccc5nonc5c4)n3n2)c1", "pKi": "< 5.70"}
{"TEST_SMILES": "O=C(O)c1cc(O)ccc1NCc1nnc2ccc(Nc3cccc(Cl)c3)nn12", "pKi": "< 5.70"}
{"TEST_SMILES": "Oc1ccc(Cc2nnc3ccc(N4CCc5ccccc5C4)nn23)cc1", "pKi": "5.70 to 7.00"}
{"TEST_SMILES": "Fc1ccc(Cl)cc1Nc1ccc2nnc(Cc3ccc4c(c3)OCO4)n2n1", "pKi": "> 7.00"}
{"TEST_SMILES": "O=C(O)Cc1ccc(C2=Nn3c(Cc4ccc(O)cc4)nnc3SC2)s1", "pKi": "5.70 to 7.00"}

* * *

molecular target: UniProt P08581; assay: Ki determination for the inhibition of c-Met kinase activity (standard coupled enzyme system); assay type: biochemical; conditions: coupled enzyme system, 200 μM ATP, 80 nM c-Met, 30° C.; read-out: c-Met Ki
pKi: −log10 of the molar value.
Recorded pKi for the following molecules

{"MOLECULE": "Fc1ccc(OCc2nnc3ccc(Nc4cccc(Cl)c4)nn23)cc1F [Compound 378]", "pKi": "< 5.70"}
{"MOLECULE": "COc1ccc(OCc2nnc3ccc(Nc4cccc(Cl)c4)nn23)c(N)c1 [Compound 434]", "pKi": "5.70 to 7.00"}
{"MOLECULE": "C[C@@H](c1ccc(O)cc1)c1nnc2ccc(Nc3ccc(F)nc3)nn12 [Compound 510]", "pKi": "5.70 to 7.00"}
{"MOLECULE": "Clc1cccc(Nc2ccc3nnc(CCc4ccncc4)n3n2)c1 [Compound 394]", "pKi": "< 5.70"}
{"MOLECULE": "CC(c1ccc(F)cc1)c1nnc2ccc(Nc3cccc(Cl)c3)nn12 (centres unmarked) [Compound 493]", "pKi": "> 7.00"}
